ASSAYED TARGET: Nuclear receptor coactivator 3 (Homo sapiens)
ASSAY COMMENT: SRC3 coactivator transcriptional activity inhibitors, confirmation, cell-based, luminescence, quadruplicate (AID 588792);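 note: 0% = DMSO treated cells and 100% = gossypol at 36 µM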
STUDY CONDITIONS: HEK293 GAL4-SRC3 luciferase reporter, at 3.6 µM, stronger effect = higher value
Overview of reported inhibition across a group of compounds:

COMPOUND	inhibition [%]
O=c1[nH]c2ccccc2n1C1CCN(C(c2ccnc3ccccc23)c2nnnn2-c2ccc3c(c2)OCCO3)CC1 (stereo not drawn)	8.29
CCCCn1c(O)c(C(C)=Nc2ccc(C(=O)O)cc2)c(=O)[nH]c1=O	1.79
C[C@]12CC[C@H]3[C@@H](CC[C@]4(O)C[C@@H](O)CC[C@]34C=O)[C@@]1(O)CC[C@@H]2C1=CC(=O)OC1	92.8
CC(=O)OC1CC2(O)C3CCC4CC(O)CCC4(C)C3CCC2(C)C1C1=CC(=O)OC1 (stereo not drawn)	95.9
CC1CC(C)CC(C)C(O)C(C#N)=CC=CCC(C2CCCC2C(=O)O)OC(=O)CC(O)C(C)C1 (stereo not drawn)	97.5
CC1CCOC(=O)C=CC=CC(=O)OC2CC3OC4C5OC5(C)C(O)CC4(COC(=O)C1O)C2(C)C31CO1 (stereo not drawn)	98.8
CC(=O)OC[C@]12CCC(C)=C[C@H]1O[C@@H]1[C@H](O)[C@@H](OC(C)=O)[C@@]2(C)[C@]12CO2	98.8
O=C1NC2C(=CC(O)C(O)C2O)c2cc3c(cc21)OCO3 (stereo not drawn)	97.1
COc1cc2c(cc1O)C[C@H]1NCCc3cc4c(c-2c31)OCO4	32.3
COc1ccc(-n2nnnc2C(CCc2ccccc2)N2CCC(n3c(=O)[nH]c4ccccc43)CC2)cc1 (stereo not drawn)	25.2
C=C1C(C)C2C(Cc3ccccc3)NC(=O)C23OC(=O)/C=C/C(O)CCCC(C)C/C=C/C3C1O (stereo not drawn)	10.6
C=C1C(=O)[C@@]23C[C@H]4[C@@H]5[C@@]6(C)CCC[C@@]57[C@@H]2[C@@H](O)[C@@H]1C[C@H]3[C@H]7N4C6	3.71
CCn1nc(/C=C/c2ccccc2)nc2c(=O)n(C)c(=O)nc1-2	39.2
CC(C)c1oc(=O)cc2c1[C@@H](O)[C@H]1OC(=O)[C@@]3(C)CC[C@@H](O)[C@@]2(C)C13 (stereo partly drawn)	40.9
Cc1c(C(=O)N2CCC3(CC2)OCCO3)sc2ncnc(N3CCN(c4ccccn4)CC3)c12	-7.87
CCC1(OC(=O)CN)C(=O)OCc2c1cc1n(c2=O)Cc2cc3ccccc3nc2-1 (stereo not drawn)	94.9
COc1cccc(C(c2nnnn2Cc2ccccc2)N2CCC(n3c(=O)[nH]c4ccccc43)CC2)c1OC (stereo not drawn)	25.4
O=c1[nH]c2ccccc2n1C1CCN(C(c2cccs2)c2nnnn2Cc2ccccc2)CC1 (stereo not drawn)	32.3

====

Overview of reported inhibition across a group of compounds:
ASSAYED TARGET: Nuclear receptor coactivator 2 (Homo sapiens)
ASSAY COMMENT: SRC2 coactivator transcriptional activity inhibitors, confirmation, cell-based, luminescence, HEK293, triplicate (AID 652008);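 note: 0% = DMSO-treated cells and 100% = Gossypol at 36 µM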
STUDY CONDITIONS: HEK293 GAL4-SRC2 luciferase reporter, at 8.9 µM, stronger effect = higher value
READOUT: inhibition (%)

COMPOUND	ASSAYED TARGET	READOUT	NUMERIC RESULT
CC1OC(OC2CC(O)C3(CO)C4C(O)CC5(C)C(C6=CC(=O)OC6)CCC5(O)C4CCC3(O)C2)C(O)C(O)C1O (stereo not drawn)	Nuclear receptor coactivator 2 (Homo sapiens)	inhibition	54
O=Cc1cn(Cc2ccc(F)cc2Cl)c2ccccc12	Nuclear receptor coactivator 2 (Homo sapiens)	inhibition	26.5
CCCCN=C[C@]12CCC(O)CC1(O)CCC1[C@@H]2CC[C@]2(C)[C@H](C3C=CC(=O)O3)CCC12O (stereo partly drawn)	Nuclear receptor coactivator 2 (Homo sapiens)	inhibition	20.9
COC(=O)C1=C(C(=O)OC)C2c3ccccc3C1c1ccccc12	Nuclear receptor coactivator 2 (Homo sapiens)	inhibition	2.05
C[C@@H]1O[C@@H](O[C@@H]2C=C3CCC4C(CC[C@]5(C)[C@@H](c6ccc(=O)oc6)CC[C@]45O)[C@@]3(C)CC2)[C@H](O)[C@H](O)[C@H]1O (stereo partly drawn)	Nuclear receptor coactivator 2 (Homo sapiens)	inhibition	60.1
C=Cc1cc(OC)c2c(c1)c(=O)oc1c2cc(OC)c2c(O)ccc(C3OC(C)C(O)C(C)(O)C3O)c21 (stereo not drawn)	Nuclear receptor coactivator 2 (Homo sapiens)	inhibition	-166
CC(=O)O[C@H]1C[C@@H]2OC3C=C(C)CCC3(C)[C@@]1(C)[C@@]21CO1 (stereo partly drawn)	Nuclear receptor coactivator 2 (Homo sapiens)	inhibition	77.9
C[C@@H]1C[C@@H]([C@H](O)CC2CC(=O)NC(=O)C2)C(=O)[C@@H](C)C1	Nuclear receptor coactivator 2 (Homo sapiens)	inhibition	59.3
